assay: Cytotoxicity against mouse J774.1 cells after 72 hrs by MTT assay; type: cell-based; conditions: J774.1 cells
recordedEndpoint: CC50 at 72 h (µM)
Numbers only, in µM.

{"cpdSmiles": "O=[N+]([O-])c1c(CS(=O)(=O)c2ccc(-c3ccccc3)cc2)nc2ccc(Br)cn12", "unitAbbrev": "µM", "CC50 at 72 h": 54.4}
{"cpdSmiles": "O=[N+]([O-])c1c(CS(=O)(=O)c2ccccc2)nc2ccc(Br)cn12", "unitAbbrev": "µM", "CC50 at 72 h": 34.3}
{"cpdSmiles": "O=S(=O)(Cc1cn2cc(Br)ccc2n1)c1ccccc1", "unitAbbrev": "µM", "CC50 at 72 h": 6.4}

For this molecule ( `COc1cccc2c1C(=O)c1c(O)c3c(c(O)c1C2=O)C[C@@](O)(C(=O)CO)C[C@@H]3O[C@H]1C[C@H](N)[C@H](O)[C@H](C)O1` ), measured CC50 at 72 h is 0.02

---

test: Cytotoxicity against human HepG2 cells after 72 hrs by MTT assay; assay type: cell-based; settings: HepG2 cells
recordedEndpoint: CC50 at 72 h

Sample records with CC50 at 72 h:
{"cpdSmiles": "COc1ccc(S(=O)(=O)Cc2nc3ccc(Br)cn3c2[N+](=O)[O-])cc1", "CC50 at 72 h": "> 100 µM"}
{"cpdSmiles": "O=[N+]([O-])c1c(CS(=O)(=O)c2ccc(F)cc2)nc2ccc(Br)cn12", "CC50 at 72 h": "> 100 µM"}
{"cpdSmiles": "O=[N+]([O-])c1c(CS(=O)(=O)c2ccccc2)nc2c(Br)cc(Br)cn12", "CC50 at 72 h": "> 31 µM"}
{"cpdSmiles": "Cc1ccccc1-c1ccc2nc(CS(=O)(=O)c3ccccc3)c([N+](=O)[O-])n2c1", "CC50 at 72 h": "> 9.4 µM"}
{"cpdSmiles": "O=S(=O)(Cc1cn2cc(Br)ccc2n1)c1ccc(Cl)cc1", "CC50 at 72 h": "23 µM"}
{"cpdSmiles": "ClCc1cn2ccccc2n1", "CC50 at 72 h": "> 100 µM"}

Here are 4 compounds. What values of CC50 at 72 h were reported for them?
1. O=S(=O)(Cc1cn2ccccc2n1)c1ccccc1
2. O=[N+]([O-])c1cnc2ccccn12
3. CS(=O)(=O)Cc1nc2ccc(Br)cn2c1[N+](=O)[O-]
4. O=S(=O)(Cc1cn2cc(Cl)ccc2n1)c1ccc(Cl)cc1

Key:
1. > 100 µM
2. > 100 µM
3. > 100 µM
4. 71.5 µM

For this compound ( `Cc1nc2ccccn2c1[N+](=O)[O-]` ), measured CC50 at 72 h is > 100 µM

---

assay: Selectivity index, ratio of CC50 for human HepG2 cells to IC50 for Leishmania donovani MHOM/IN/00/DEVI; assay type: functional
recordedEndpoint: Ratio CC50/IC50

{"cpdSmiles": "O=[N+]([O-])c1c(CS(=O)(=O)c2ccc(Br)cc2)nc2ccc(Br)cn12", "result": 1.6}

Here are 2 compounds. What values of Ratio CC50/IC50 were reported for them?
1. O=[N+]([O-])c1c(CSc2ccccc2)nc2ccc(Br)cn12
2. O=[N+]([O-])c1c(CS(=O)(=O)c2ccccc2)nc2c(Br)cc(Br)cn12

Key:
1. <0.05
2. >17.2

Here are 5 compounds. What values of Ratio CC50/IC50 were reported for them?
1. O=S(=O)(Cc1cn2cc(I)ccc2n1)c1ccccc1
2. O=[N+]([O-])c1c(CCl)nc2ccccn12
3. O=S(=O)(Cc1cn2cc(Br)ccc2n1)c1ccccc1
4. O=[N+]([O-])c1c(CS(=O)(=O)c2ccccc2)nc2ccc(Cl)cn12
5. O=S(=O)(Cc1cn2cc(Br)ccc2n1)c1ccc(Cl)cc1

Key:
1. <0.1
2. 0.6
3. 0.15
4. >5.5
5. <0.5

Here are 6 compounds. What values of Ratio CC50/IC50 were reported for them?
1. O=[N+]([O-])c1c(CS(=O)(=O)c2ccc(Cl)cc2)nc2ccc(I)cn12
2. O=[N+]([O-])c1c(CS(=O)(=O)c2ccc(C(F)(F)F)cc2)nc2ccc(Br)cn12
3. O=[N+]([O-])c1c(CS(=O)(=O)c2ccc(Cl)cc2)nc2ccc(Cl)cn12
4. O=[N+]([O-])c1c(CS(=O)(=O)c2ccc(Cl)cc2)nc2ccc(Br)cn12
5. O=S(=O)(Cc1cn2cc(Cl)ccc2n1)c1ccc(Cl)cc1
6. O=[N+]([O-])c1c(CCl)nc2ccc(Br)cn12

Key:
1. >1.7
2. <0.6
3. 1.1
4. 0.12
5. <1.4
6. 1.6

Here are 7 compounds. What values of Ratio CC50/IC50 were reported for them?
1. O=S(=O)(Cc1cn2cc(I)ccc2n1)c1ccc(Cl)cc1
2. O=[N+]([O-])c1c(CS(=O)(=O)c2ccccc2)nc2ccc(I)cn12
3. O=[N+]([O-])c1c(CS(=O)(=O)c2ccc(I)cc2)nc2ccc(Br)cn12
4. Cc1ccc(S(=O)(=O)Cc2cn3cc(Cl)ccc3n2)cc1
5. O=[N+]([O-])c1c(CS(=O)(=O)c2ccccc2)nc2ccc(Br)cn12
6. Cc1ccc(S(=O)(=O)Cc2nc3ccc(I)cn3c2[N+](=O)[O-])cc1
7. O=S(=O)(Cc1cn2cc(Cl)ccc2n1)c1ccccc1

Key:
["<0.8", ">7.9", "<0.4", 2, ">7.1", ">1.3", "<0.3"]

For this compound ( `Cc1ccc(S(=O)(=O)Cc2cn3cc(Br)ccc3n2)cc1` ), measured Ratio CC50/IC50 is <0.6
